// values below are reported IC50
Target: Amine oxidase [flavin-containing] A (Homo sapiens, UniProt P21397)
Sequence (P21397 whole entry): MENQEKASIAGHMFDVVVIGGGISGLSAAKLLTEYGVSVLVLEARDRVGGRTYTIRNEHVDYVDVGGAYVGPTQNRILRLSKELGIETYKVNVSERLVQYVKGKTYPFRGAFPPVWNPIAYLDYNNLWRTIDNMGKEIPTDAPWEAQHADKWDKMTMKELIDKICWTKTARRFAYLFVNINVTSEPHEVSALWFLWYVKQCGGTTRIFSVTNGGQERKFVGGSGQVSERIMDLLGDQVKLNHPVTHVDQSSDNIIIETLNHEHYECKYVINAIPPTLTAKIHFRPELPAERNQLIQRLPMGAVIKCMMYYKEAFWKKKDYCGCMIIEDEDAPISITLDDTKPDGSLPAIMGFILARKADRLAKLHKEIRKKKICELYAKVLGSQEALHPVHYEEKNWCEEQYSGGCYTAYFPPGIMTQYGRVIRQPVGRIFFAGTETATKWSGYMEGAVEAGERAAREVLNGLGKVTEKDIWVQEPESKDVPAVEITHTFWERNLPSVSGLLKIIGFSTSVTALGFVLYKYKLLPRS
Assay: Inhibition of human recombinant MAO-A expressed in yeast after 1 hr by luciferin-based luminescence assay
Your answer is read as µM, so omit the unit and give the number.

Answered examples (2):
>>> print(df.to_string())
                                   molecule                     target_or_test_system  measurement_label  output_unit  measured_value
0  Cn1nnc(-c2ccc(-c3ccc(N4C[C@H](COP(=O)(O)O)OC4=O)cc3F)cn2)n1 [TEDIZOLID PHOSPHATE]  Amine oxidase [flavin-containing] A (Homo sapiens, UniProt P21397)               IC50           µM               4
1  CC(=O)NC[C@H]1CN(c2ccc(N3C=CC(=O)CC3)c(F)c2)C(=O)O1  Amine oxidase [flavin-containing] A (Homo sapiens, UniProt P21397)               IC50           µM            10.9

Continue with the molecule presented below.
Look up IC50 for this molecule: COC(=O)NC[C@H]1CN(c2cc(F)c(N3C=CC(=O)CC3)c(F)c2F)C(=O)O1
61.1
